- protocol: self-splicing fitness, log relative to wild type (ln ratio); higher = more splicing; Tetrahymena group I intron in knt gene, E. coli kanamycin selection, DiMSum; sequences stand for … in CUCUCU…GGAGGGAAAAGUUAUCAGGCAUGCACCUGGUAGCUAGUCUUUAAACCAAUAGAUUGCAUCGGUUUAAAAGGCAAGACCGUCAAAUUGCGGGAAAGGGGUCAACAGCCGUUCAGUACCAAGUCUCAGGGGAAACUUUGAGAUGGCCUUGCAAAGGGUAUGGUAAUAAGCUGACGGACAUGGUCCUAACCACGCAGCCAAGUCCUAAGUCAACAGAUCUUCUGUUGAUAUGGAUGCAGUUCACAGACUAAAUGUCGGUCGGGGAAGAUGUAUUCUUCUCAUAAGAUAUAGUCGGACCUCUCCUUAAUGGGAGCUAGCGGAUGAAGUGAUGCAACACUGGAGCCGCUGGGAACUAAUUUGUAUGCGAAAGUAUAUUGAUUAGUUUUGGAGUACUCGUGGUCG;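 further: selection with 25 µg/mL kanamycin versus none on LB agar overnight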
- test-settings: 37 °C
property-measured: self-splicing fitness (ln)
Just the number, please, no unit after it.

construct_sequence=AUAGAGCAAUAUUACGUGUC property_measured="self-splicing fitness (ln)" reported_measurement=-2.17
construct_sequence=CACGAGCAAUAUUACGUCAC property_measured="self-splicing fitness (ln)" reported_measurement=-3.18
construct_sequence=GACCAGCAAUAUUACGACGG property_measured="self-splicing fitness (ln)" reported_measurement=-1.99

# evaluate next
Which self-splicing fitness (ln) is reported for this sequence? CAACAGCAAUAUUACGCGGC -2.09

---

- protocol: self-splicing fitness, log relative to wild type (ln ratio); higher = more splicing; Tetrahymena group I intron in knt gene, E. coli kanamycin selection, DiMSum; sequences stand for … in CUCUCU…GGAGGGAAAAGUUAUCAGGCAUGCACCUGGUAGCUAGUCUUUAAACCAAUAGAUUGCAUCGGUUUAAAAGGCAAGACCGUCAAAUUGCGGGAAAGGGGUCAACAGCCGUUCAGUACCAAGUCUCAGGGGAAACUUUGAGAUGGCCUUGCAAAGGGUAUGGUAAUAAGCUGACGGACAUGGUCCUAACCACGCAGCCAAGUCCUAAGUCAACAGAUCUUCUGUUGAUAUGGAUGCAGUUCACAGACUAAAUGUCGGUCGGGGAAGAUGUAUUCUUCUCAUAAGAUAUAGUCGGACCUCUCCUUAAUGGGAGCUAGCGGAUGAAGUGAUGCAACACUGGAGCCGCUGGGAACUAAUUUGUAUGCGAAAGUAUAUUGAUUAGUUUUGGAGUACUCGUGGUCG
- test-settings: 30 °C
Label Not met if self-splicing fitness (ln) falls below -1; label Met in every other case.

construct_sequence=GCCCAGCAAUAUUACGUUAU qualitative_label="Not met"
construct_sequence=CUGUAGCAAUAUUACGAGAC qualitative_label="Not met"
construct_sequence=AUUUAGCAAUAUUACGACGU qualitative_label=Met
construct_sequence=GGCCAGCAAUAUUACGUUAA qualitative_label="Not met"
construct_sequence=GAGGAGCAAUAUUACGUAUC qualitative_label="Not met"
construct_sequence=AGCUAGCAAUAUUACGAGUA qualitative_label="Not met"
construct_sequence=UGGUAGCAAUAUUACGCAUA qualitative_label="Not met"

Now look at this one.
Decide: self-splicing fitness (ln) of UGCCAGCAAUAUUACGCGCG >= -1? Met

---

Recorded measurements of self-splicing fitness (ln), one per entry
- protocol: self-splicing fitness, log relative to wild type (ln ratio); higher = more splicing; Tetrahymena group I intron in knt gene, E. coli kanamycin selection, DiMSum; sequences stand for … in CUCUCU…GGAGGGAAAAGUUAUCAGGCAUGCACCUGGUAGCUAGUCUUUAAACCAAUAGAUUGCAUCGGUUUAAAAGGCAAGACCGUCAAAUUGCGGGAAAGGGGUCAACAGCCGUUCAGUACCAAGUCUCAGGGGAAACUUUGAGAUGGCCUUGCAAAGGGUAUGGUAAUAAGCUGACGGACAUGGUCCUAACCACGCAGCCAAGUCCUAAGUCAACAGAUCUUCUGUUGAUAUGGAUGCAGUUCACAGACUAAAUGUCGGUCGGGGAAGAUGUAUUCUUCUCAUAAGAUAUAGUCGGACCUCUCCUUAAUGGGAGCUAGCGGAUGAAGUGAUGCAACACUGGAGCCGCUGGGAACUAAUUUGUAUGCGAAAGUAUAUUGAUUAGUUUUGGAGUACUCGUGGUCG
- test-settings: 37 °C
Number, no unit, nothing else.

construct_sequence=GGCUAGCAAUAUUACGGGCC property_measured="self-splicing fitness (ln)" reported_measurement=-1.98

Moving on to another sequence below.
What value of self-splicing fitness (ln) has been recorded for this entry: UGUGAGCAAUAUUACGGCUG -0.456

---

- protocol: self-splicing fitness, log relative to wild type (ln ratio); higher = more splicing; Tetrahymena group I intron in knt gene, E. coli kanamycin selection, DiMSum; sequences stand for … in CUCUCU…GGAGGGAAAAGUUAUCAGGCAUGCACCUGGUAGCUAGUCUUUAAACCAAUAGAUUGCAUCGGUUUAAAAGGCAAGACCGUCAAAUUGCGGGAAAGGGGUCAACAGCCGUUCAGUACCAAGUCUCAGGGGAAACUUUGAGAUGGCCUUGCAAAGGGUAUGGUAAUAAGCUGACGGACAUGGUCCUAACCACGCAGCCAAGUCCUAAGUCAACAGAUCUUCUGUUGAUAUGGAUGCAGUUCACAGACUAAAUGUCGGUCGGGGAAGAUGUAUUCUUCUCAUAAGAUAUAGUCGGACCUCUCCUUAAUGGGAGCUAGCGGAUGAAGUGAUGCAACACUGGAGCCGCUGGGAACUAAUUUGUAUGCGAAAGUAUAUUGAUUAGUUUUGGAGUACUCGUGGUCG
- test-settings: 30 °C
We'd kindly ask you to apply these self-splicing fitness (ln) classes: bottom (below -3), middle (-3 to below -2), top (-2 or more)

construct_sequence=GACCAGCAAUAUUACGGCAC qualitative_label=top

Pick a category. Item: CACCAGCAAUAUUACGAAGU bottom

Class for CGCAAGCAAUAUUACGGCCC ? top

---

- protocol: self-splicing fitness, log relative to wild type (ln ratio); higher = more splicing; Tetrahymena group I intron in knt gene, E. coli kanamycin selection, DiMSum; sequences stand for … in CUCUCU…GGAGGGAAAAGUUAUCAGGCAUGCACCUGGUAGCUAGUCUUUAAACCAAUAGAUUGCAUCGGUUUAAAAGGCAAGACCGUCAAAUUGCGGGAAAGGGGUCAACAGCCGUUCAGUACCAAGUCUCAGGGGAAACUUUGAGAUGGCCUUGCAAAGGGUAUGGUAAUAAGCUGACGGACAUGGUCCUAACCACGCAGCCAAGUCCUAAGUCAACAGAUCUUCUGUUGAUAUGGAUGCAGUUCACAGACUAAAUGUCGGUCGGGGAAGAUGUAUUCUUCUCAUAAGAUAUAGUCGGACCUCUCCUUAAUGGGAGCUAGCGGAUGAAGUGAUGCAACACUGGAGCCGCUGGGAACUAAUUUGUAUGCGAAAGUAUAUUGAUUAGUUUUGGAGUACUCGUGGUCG
- test-settings: 37 °C
Each entry gets criterion not met if its self-splicing fitness (ln) stays under -0.8, and criterion met if its self-splicing fitness (ln) is -0.8 or above.

construct_sequence=UUACAGCAAUAUUACGGGCA qualitative_label="criterion met"
construct_sequence=GGCGAGCAAUAUUACGUAUU qualitative_label="criterion met"
construct_sequence=CACAAGCAAUAUUACGAGAA qualitative_label="criterion not met"
construct_sequence=CAAAAGCAAUAUUACGGACC qualitative_label="criterion not met"
construct_sequence=CUAAAGCAAUAUUACGUGUA qualitative_label="criterion not met"

Determine whether measured self-splicing fitness (ln) meets or exceeds -0.8 for AACGAGCAAUAUUACGCGUU criterion not met

hey, is self-splicing fitness (ln) for this one >= -0.8? AAUCAGCAAUAUUACGAACC criterion met

Tell me whether self-splicing fitness (ln) is at least -0.8 here: CAUGAGCAAUAUUACGGGAA criterion not met

---

- protocol: self-splicing fitness, log relative to wild type (ln ratio); higher = more splicing; Tetrahymena group I intron in knt gene, E. coli kanamycin selection, DiMSum; sequences stand for … in CUCUCU…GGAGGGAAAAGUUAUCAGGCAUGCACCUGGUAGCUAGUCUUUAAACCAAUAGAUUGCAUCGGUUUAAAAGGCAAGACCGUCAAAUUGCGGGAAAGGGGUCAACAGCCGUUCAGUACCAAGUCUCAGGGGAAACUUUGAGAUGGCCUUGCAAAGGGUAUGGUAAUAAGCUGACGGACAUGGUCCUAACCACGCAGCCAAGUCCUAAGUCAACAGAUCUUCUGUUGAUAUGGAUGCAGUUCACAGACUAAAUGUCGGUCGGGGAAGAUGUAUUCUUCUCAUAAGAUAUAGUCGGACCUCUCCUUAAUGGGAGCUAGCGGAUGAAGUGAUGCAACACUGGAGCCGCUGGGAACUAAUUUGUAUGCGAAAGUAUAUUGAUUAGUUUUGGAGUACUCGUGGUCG
- test-settings: 30 °C
Kindly return MET if reported self-splicing fitness (ln) is no lower than -3; return NOT MET if it is lower.

These solved cases illustrate the format of a correct answer.
construct_sequence=GCUAAGCAAUAUUACGUUAU qualitative_label=MET
construct_sequence=UUUGAGCAAUAUUACGCGGG qualitative_label=MET

Given GGUCAGCAAUAUUACGUUAU , state whether its self-splicing fitness (ln) is at least -3. MET

For this sequence, is measured self-splicing fitness (ln) -3 or higher? GACGAGCAAUAUUACGAUUA MET

Determine whether measured self-splicing fitness (ln) meets or exceeds -3 for CGGGAGCAAUAUUACGUCUA MET

Dear colleague, could you confirm whether UAAAAGCAAUAUUACGCCAA has self-splicing fitness (ln) at or above -3? MET

Test whether the sequence ACCAAGCAAUAUUACGUAUA records self-splicing fitness (ln) of -3 or higher. NOT MET

Given the entry UACAAGCAAUAUUACGUUCG , answer whether its self-splicing fitness (ln) meets or surpasses -3. MET

I'd appreciate it if you could say whether CGCCAGCAAUAUUACGCCGA has self-splicing fitness (ln) at least equal to -3. MET

Kindly determine if self-splicing fitness (ln) recorded for CUAUAGCAAUAUUACGACAU is above or exactly -3. NOT MET

Reported self-splicing fitness (ln) reaches at least -3 for UCGCAGCAAUAUUACGUUGU ? MET
